Target: HIV Env, isolate 1006_11_C3_1601 (HIV)
Test: cell-based or functional assay
Below, each entry is listed alongside its reported IC80 (µg/ml) with constrains.
observed.property: IC80 (µg/ml) with constrains (µg/mL)

binder	observed.property	result
ePGDM13 (antibody, V domains shown) VH: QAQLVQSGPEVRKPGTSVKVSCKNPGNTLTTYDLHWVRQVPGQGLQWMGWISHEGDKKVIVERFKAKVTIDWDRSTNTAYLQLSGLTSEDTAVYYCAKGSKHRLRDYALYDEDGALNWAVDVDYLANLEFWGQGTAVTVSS VL: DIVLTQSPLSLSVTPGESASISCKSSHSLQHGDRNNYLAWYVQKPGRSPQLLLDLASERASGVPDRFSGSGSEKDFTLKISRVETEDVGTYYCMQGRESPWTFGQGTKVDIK	IC80 (µg/ml) with constrains	3.3
PGDM1400 (antibody, V domains shown) VH: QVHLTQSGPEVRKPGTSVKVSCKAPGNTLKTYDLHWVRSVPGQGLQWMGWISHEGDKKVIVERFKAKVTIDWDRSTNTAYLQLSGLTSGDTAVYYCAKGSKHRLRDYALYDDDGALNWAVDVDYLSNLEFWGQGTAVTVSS VL: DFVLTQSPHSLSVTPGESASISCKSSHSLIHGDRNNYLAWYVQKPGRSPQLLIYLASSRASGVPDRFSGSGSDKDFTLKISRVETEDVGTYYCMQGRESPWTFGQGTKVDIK	IC80 (µg/ml) with constrains	7.43
ePGDM9 (antibody, V domains shown) VH: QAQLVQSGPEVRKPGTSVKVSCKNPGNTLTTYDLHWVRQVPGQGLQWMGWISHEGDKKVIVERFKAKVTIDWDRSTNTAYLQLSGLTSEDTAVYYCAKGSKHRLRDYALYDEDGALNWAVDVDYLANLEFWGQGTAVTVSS VL: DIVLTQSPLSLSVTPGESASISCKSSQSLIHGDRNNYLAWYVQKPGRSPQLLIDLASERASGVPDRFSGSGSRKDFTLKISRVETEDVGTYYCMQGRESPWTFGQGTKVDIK	IC80 (µg/ml) with constrains	2.35
ePGDM5 (antibody, V domains shown) VH: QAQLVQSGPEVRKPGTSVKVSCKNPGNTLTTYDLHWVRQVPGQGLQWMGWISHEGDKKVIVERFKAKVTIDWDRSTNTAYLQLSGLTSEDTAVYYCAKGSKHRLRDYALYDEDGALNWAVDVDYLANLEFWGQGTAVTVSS VL: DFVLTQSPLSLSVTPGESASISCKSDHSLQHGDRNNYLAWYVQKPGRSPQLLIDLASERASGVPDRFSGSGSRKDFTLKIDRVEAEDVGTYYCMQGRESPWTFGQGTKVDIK	IC80 (µg/ml) with constrains	1.89
